# Protocol notes: self-splicing fitness, log relative to wild type (ln ratio); higher = more splicing; Tetrahymena group I intron in knt gene, E. coli kanamycin selection, DiMSum; sequences stand for … in CUCUCU…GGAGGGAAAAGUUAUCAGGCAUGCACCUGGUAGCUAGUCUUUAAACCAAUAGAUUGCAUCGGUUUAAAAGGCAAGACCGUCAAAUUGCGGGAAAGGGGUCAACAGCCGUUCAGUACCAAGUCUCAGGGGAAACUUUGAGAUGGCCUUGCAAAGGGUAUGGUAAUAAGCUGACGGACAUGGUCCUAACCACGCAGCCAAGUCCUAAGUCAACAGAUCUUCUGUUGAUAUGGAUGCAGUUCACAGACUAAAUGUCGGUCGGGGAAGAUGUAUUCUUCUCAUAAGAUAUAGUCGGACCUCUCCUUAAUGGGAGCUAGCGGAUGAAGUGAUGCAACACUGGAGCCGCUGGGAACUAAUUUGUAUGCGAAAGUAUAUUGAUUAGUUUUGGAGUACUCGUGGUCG;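 note: selection with 25 µg/mL kanamycin versus none on LB agar overnight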
# Condition summary: 30 °C
Let's look at some sequences and their measured self-splicing fitness (ln).

ACUCAGCAAUAUUACGACAC = -1.44
ACUCAGCAAUAUUACGAAUU = -0.96
AAUGAGCAAUAUUACGUAAA = -3.26

Let me know recorded self-splicing fitness (ln) for ACAUAGCAAUAUUACGCGGU , thanks. -3.36

====

# Protocol notes: self-splicing fitness, log relative to wild type (ln ratio); higher = more splicing; Tetrahymena group I intron in knt gene, E. coli kanamycin selection, DiMSum; sequences stand for … in CUCUCU…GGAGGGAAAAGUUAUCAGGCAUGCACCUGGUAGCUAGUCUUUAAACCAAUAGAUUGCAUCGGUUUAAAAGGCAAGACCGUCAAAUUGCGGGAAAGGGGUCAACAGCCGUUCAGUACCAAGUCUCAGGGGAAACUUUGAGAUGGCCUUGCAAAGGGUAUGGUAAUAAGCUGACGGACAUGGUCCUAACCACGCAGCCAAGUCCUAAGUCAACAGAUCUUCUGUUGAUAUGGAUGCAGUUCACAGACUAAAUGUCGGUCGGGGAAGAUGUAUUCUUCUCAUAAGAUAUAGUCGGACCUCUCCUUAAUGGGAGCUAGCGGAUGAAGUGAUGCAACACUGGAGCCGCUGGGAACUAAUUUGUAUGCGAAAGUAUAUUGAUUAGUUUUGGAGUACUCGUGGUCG
# Condition summary: 37 °C
Let's look at some sequences and their measured self-splicing fitness (ln).
Would you mind answering with just the numeric figure?

Solved cases below.
CUCCAGCAAUAUUACGUUCC = -1.99
AUAAAGCAAUAUUACGUACG = -0.0766
GUUAAGCAAUAUUACGACGC = -0.36
GUUGAGCAAUAUUACGUAAU = -0.913
CCUGAGCAAUAUUACGGCUC = -2.97
AGGAAGCAAUAUUACGGUGG = -1.64
AACAAGCAAUAUUACGGAGA = -3.19
UAUAAGCAAUAUUACGCCAA = -0.0916
AGCAAGCAAUAUUACGACCG = -0.512
AUUUAGCAAUAUUACGGAUG = -1.91

Let me know recorded self-splicing fitness (ln) for AGUAAGCAAUAUUACGGCCU , thanks. -0.034

Let me know recorded self-splicing fitness (ln) for AUAAAGCAAUAUUACGAUGU , thanks. 0.28

Let me know recorded self-splicing fitness (ln) for GAGAAGCAAUAUUACGCAGU , thanks. -2.06

Let me know recorded self-splicing fitness (ln) for GGAAAGCAAUAUUACGUAUU , thanks. -1.45
